Tested on: HCT-15 colon
Assay: NCI tumour cell line growth inhibition, 48 h
measured_property: TGI (µM)
Numbers only, in µM.

INSERT INTO results (chemical_structure, experimental_result) VALUES
  ('COc1cc(/C=C/C(=O)c2ccc(Nc3ncnc4ccccc34)cc2)cc(OC)c1', 48.7);

Then there is this compound:
GET /values?item= CN(C)CCCN(c1nc(C(Cl)(Cl)Cl)ns1)c1nc(C(Cl)(Cl)Cl)ns1 &system= HCT-15 colon returns TGI: 4.08

* * *

Test system: DU-145 prostate
Test: NCI tumour cell line growth inhibition, 48 h
measured_property: TGI

For every listed record, write down its TGI.
1. O=S1(=O)OC(c2ccc(O)cc2)(c2ccc(O)cc2)c2ccccc21
2. COC(=O)C1Cc2cccc(C)c2C1 (stereo not given)

Result ::
1: > 100 µM; 2: > 100 µM
